meta.source: patent US7767665B2

Endpoint Label: melting point

Query :: Quick one: give measured melting point for COC(=O)C[S+]([O-])Cc1cccc(-c2nc(=O)c3ccccc3s2)n1 (stereo not drawn)
Result :: 149.5 to 151 °C

Query :: Return melting point for the following compound: O=c1nc(-c2cccc(N3CCN(c4ccccc4)CC3)n2)sc2ccccc12
Result :: 245.8 °C (dec.)

Query :: Using known records, supply melting point for CCOC(=O)C(C)Cc1ccnc(-c2nc(=O)c3ccccc3s2)c1 (stereo not drawn)
Result :: 120.3 to 120.7 °C

Query :: Tell me its melting point given O=c1nc(-c2cccc(Oc3ccccc3)n2)sc2ccccc12 as the entry.
Result :: 160.8 to 161.3 °C

Query :: Please indicate melting point recorded for CC(C)(C)OC(=O)CCc1ccnc(-c2nc(=O)c3ccccc3s2)c1
Result :: 135.8 to 136.7 °C

Query :: Please list melting point recorded for the compound O=c1nc(-c2cccc(Sc3ccncc3)n2)sc2ccccc12
Result :: 245.2 to 245.8 °C

Query :: Please report the measured melting point for COc1ccc(-c2cccc(-c3nc(=O)c4ccccc4s3)n2)cc1
Result :: 200.1 to 201.1 °C

Query :: Give melting point for the following compound: O=c1nc(-c2ccc3c(n2)CCCC3)sc2ccccc12
Result :: 232.3 to 232.8 °C

Query :: Indicate the recorded melting point value for this compound: O=c1nc(-c2cccc(S(=O)(=O)CCCc3ccccc3)n2)sc2ccccc12
Result :: 149.5 to 151 °C
